- Measured Target: D-3-phosphoglycerate dehydrogenase (Homo sapiens)
- Method Notes: Inhibition of full length PHGDH (unknown origin) using 3-phosphoglycerate as substrate incubated for 60 mins in presence of PSAT1, PSPH by resazurin based diaphorase coupled assay
The entries below are paired with their reported IC50.

Compound: Cc1ccnc(NS(=O)(=O)c2ccc(NC(=O)c3cc(-c4ccccc4O)n[nH]3)cc2)n1
Measured Target: D-3-phosphoglycerate dehydrogenase (Homo sapiens)
IC50: < 50 µM
//
Compound: O=C(c1cc(-c2ccccc2)n[nH]1)N1CCC2C=C(S(=O)(=O)Nc3ncccn3)C=CC21 (centres undefined)
Measured Target: D-3-phosphoglycerate dehydrogenase (Homo sapiens)
IC50: > 100 µM
//
Compound: O=C(Nc1ccc(S(=O)(=O)Nc2ncccn2)cc1)c1cc(-c2ccccc2F)n[nH]1
Measured Target: D-3-phosphoglycerate dehydrogenase (Homo sapiens)
IC50: < 50 µM
//
Compound: NS(=O)(=O)c1ccc(NC(=O)c2cc(-c3ccccc3O)[nH]n2)cc1
Measured Target: D-3-phosphoglycerate dehydrogenase (Homo sapiens)
IC50: > 100 µM
//
Compound: O=C(Nc1ccc(S(=O)(=O)Nc2ncccn2)cc1)c1cc(-c2ccccc2O)n[nH]1
Measured Target: D-3-phosphoglycerate dehydrogenase (Homo sapiens)
IC50: < 50 µM
//
Compound: O=C(Nc1ccc(S(=O)(=O)N2CCCCC2)cc1)c1cc(-c2ccccc2O)n[nH]1
Measured Target: D-3-phosphoglycerate dehydrogenase (Homo sapiens)
IC50: > 100 µM
//
Compound: O=C(Nc1ccc(S(=O)(=O)NCc2ccco2)cc1)c1cc(-c2ccccc2O)n[nH]1
Measured Target: D-3-phosphoglycerate dehydrogenase (Homo sapiens)
IC50: > 100 µM
//
Compound: O=C(Nc1ccc(S(=O)(=O)Nc2ncccn2)cc1)c1cc(-c2ccccc2)n[nH]1
Measured Target: D-3-phosphoglycerate dehydrogenase (Homo sapiens)
IC50: < 50 µM
//
Compound: O=C(Nc1ccc(S(=O)(=O)Nc2ncccn2)cc1)c1cc(-c2ccccc2)nn1-c1ccccc1
Measured Target: D-3-phosphoglycerate dehydrogenase (Homo sapiens)
IC50: > 100 µM

* * *

The entries below are paired with their reported IC50.
- Measured Target: D-3-phosphoglycerate dehydrogenase (Homo sapiens, UniProt O43175)
- Sequence (O43175 whole entry): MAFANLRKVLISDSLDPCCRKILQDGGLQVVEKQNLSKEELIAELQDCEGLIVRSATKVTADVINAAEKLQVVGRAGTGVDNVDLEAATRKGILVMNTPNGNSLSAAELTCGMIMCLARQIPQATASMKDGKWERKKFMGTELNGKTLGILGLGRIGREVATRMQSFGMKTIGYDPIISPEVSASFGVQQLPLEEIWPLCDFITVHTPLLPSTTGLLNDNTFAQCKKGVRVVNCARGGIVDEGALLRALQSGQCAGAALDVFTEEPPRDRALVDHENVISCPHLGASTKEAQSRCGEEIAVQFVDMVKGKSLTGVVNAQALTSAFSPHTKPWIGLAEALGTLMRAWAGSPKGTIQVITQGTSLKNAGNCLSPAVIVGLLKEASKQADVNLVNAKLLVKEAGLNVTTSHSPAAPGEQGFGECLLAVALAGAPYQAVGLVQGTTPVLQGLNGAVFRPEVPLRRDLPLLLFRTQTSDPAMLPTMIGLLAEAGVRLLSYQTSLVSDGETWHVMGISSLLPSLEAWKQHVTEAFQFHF
- Method Notes: Inhibition of full length PHGDH (unknown origin) using 3-phosphoglycerate as substrate incubated for 60 mins in presence of PSAT1, PSPH by resazurin based diaphorase coupled assay

Chem Smiles: O=C(Nc1ccc(S(=O)(=O)NCCCN2CCOCC2)cc1)c1cc(-c2ccccc2O)n[nH]1
IC50: > 100 µM
--
Chem Smiles: O=C(Nc1ccc(S(=O)(=O)Nc2ccccn2)cc1)c1cc(-c2ccccc2)n[nH]1
IC50: 50 to 100 µM
--
Chem Smiles: CN(c1ncccn1)S(=O)(=O)c1ccc(NC(=O)c2cc(-c3ccccc3O)n[nH]2)cc1
IC50: > 100 µM
--
Chem Smiles: O=C(Nc1ccc(S(=O)(=O)Nc2ccccn2)cc1)c1cc(-c2ccccc2O)n[nH]1
IC50: > 100 µM
--
Chem Smiles: O=C(Nc1ccc(S(=O)(=O)Nc2ncccn2)cc1)c1cc(-c2ccccc2C(=O)O)n[nH]1
IC50: > 100 µM
--
Chem Smiles: CN(c1ncccn1)S(=O)(=O)c1ccc(NC(=O)c2cc(-c3ccccc3)n[nH]2)cc1
IC50: > 100 µM
--
Chem Smiles: O=C(Nc1ccc(S(=O)(=O)Nc2ncccn2)cc1)c1cc(-c2ccccc2)no1
IC50: > 100 µM
--
Chem Smiles: O=C(Nc1ccc(S(=O)(=O)Nc2ncccn2)cc1)c1cc(-c2ccccc2)on1
IC50: > 100 µM
--
Chem Smiles: COc1ccccc1-c1cc(C(=O)Nc2ccc(S(=O)(=O)Nc3ncccn3)cc2)[nH]n1
IC50: < 50 µM

* * *

- Method Notes: Lipophilicity, logD of the compound
- Type: physicochemical
- Conditions Used: octanol/water

Chem Smiles: O=C(COc1cc2[nH]c(C(=O)N[C@H](CO)c3ccc(C(=O)O)cc3)cc2cc1Cl)NCCO
logD: < -1

* * *

- Measured Target: D-3-phosphoglycerate dehydrogenase (Homo sapiens)
- Method Notes: Binding affinity to human N- terminal His6-tagged PHGDH (1 to 533 residues) expressed in Escherichia coli Rosetta (DE3) assessed as change in melting temperature by SYPRO orange dye based DSF assay
The entries below are paired with their reported ΔTm.

Chem Smiles: O=C1COc2cc(O)ccc21
ΔTm, °C: 1.7

Chem Smiles: COc1ccc(NC(C)=O)cc1Cl
ΔTm, °C: 1.3

Chem Smiles: Cc1cccc2cc[nH]c12
ΔTm, °C: 2.4

Chem Smiles: Oc1noc2ccccc12
ΔTm, °C: 2.5

Chem Smiles: Nc1cccc(-c2cnco2)c1
ΔTm, °C: 1.4

Chem Smiles: NC(=O)c1ccc(F)c(Cl)c1
ΔTm, °C: 2.3

Chem Smiles: Cn1nc(-c2ccccc2)cc1N
ΔTm, °C: 2.2

Values compiled from ChEMBL document CHEMBL3997775.
